Test system: U2OS
procedureSummary: Multiplex assay against U2OS
Format: toxicity, cell-based
studyConditions: human, 48 h, 10 µM, compound concentration 10 uM, replicate 2
// classify: if (Population Mitochondria Different-Phenotype (%) < 80%) 1 else 0

Query string: Threshold test, Population Mitochondria Different-Phenotype (%) < 80%: COc1cc2c(NC3CCN(C(C)C)CC3)nc(N3CCC(F)(F)CC3)nc2cc1OCCCN1CCCC1
Result string: 0

Continuing:
Query string: Threshold test, Population Mitochondria Different-Phenotype (%) < 80%: CCc1cc2c(cc1CC)CC(NC[C@H](O)c1ccc(O)c3[nH]c(=O)ccc13)C2 [INDACATEROL]
Result string: 0

Query string: Threshold test, Population Mitochondria Different-Phenotype (%) < 80%: CCC(=O)O[C@]1(C(=O)SCF)[C@H](C)C[C@H]2[C@@H]3C[C@H](F)C4=CC(=O)C=C[C@]4(C)[C@@]3(F)[C@@H](O)C[C@@]21C [FLUTICASONE PROPIONATE]
Result string: 1

Query string: Threshold test, Population Mitochondria Different-Phenotype (%) < 80%: C1=N/C2=N/c3ccc(OCCN4CCCC4)c(c3)COC/C=C\COCc3cccc(c3)C(=C1)N2
Result string: 0

Query string: Threshold test, Population Mitochondria Different-Phenotype (%) < 80%: Cc1nc(Cc2cccc(C(F)(F)F)c2)sc1-c1ccc(C(N)=O)nc1 [TP-024n]
Result string: 1

Query string: Threshold test, Population Mitochondria Different-Phenotype (%) < 80%: CC(C)Oc1ccc(C(=O)N[C@H](CNC(=O)CN(C)C)Cc2ccc(-c3cn4cccc([C@H](C)O)c4n3)cc2)cc1Cl [GSK-923295A]
Result string: 0

Query string: Threshold test, Population Mitochondria Different-Phenotype (%) < 80%: CC(C)N1CCC(C)(C)c2cc(C#Cc3ccc(C(=O)O)cc3)ccc21
Result string: 1

---

Tested on: Fibroblast
procedureSummary: Multiplex assay against human fibroblast
Format: toxicity, cell-based
studyConditions: 12 h, 10 µM, compound concentration 10 uM, replicate 2
readoutLabel: Total Cell Count
Lab note: write the figure by itself, no unit.

Query string: Using the record for CCc1cc2c(cc1CC)CC(NC[C@H](O)c1ccc(O)c3[nH]c(=O)ccc13)C2 , report its Total Cell Count.
Result string: 71

Query string: Using the record for c1ccc2oc(-c3csc(C4CCN(Cc5nc6ncccc6[nH]5)CC4)n3)cc2c1 , report its Total Cell Count.
Result string: 76

Continuing:
Query string: Using the record for COc1cc2c(NC3CCN(C(C)C)CC3)nc(N3CCC(F)(F)CC3)nc2cc1OCCCN1CCCC1 , report its Total Cell Count.
Result string: 89

Query string: Using the record for CC(=O)c1cc(-c2cc(C(=O)NC3CC3)ccc2C)c2ncccn12 , report its Total Cell Count.
Result string: 52

Query string: Using the record for CN(C)CCOc1ccc(-c2nc(-c3ccncc3)c(-c3ccc4c(c3)CC/C4=N\O)[nH]2)cc1 , report its Total Cell Count.
Result string: 128

---

Item-by-item account of Growth Rate
Test system: HEK-293T
procedureSummary: Incucyte cell viability with HEK293T; also: filed as whole numbers so only -1 and 0 and 1 occur
Assay type: toxicity, cell-based
studyConditions: human, 24 h, 10 µM, compound concentration 10 uM, replicate number 2, timepoint 24 hours
Lab note: write the figure by itself, no unit.

Query string: Lab note: need Growth Rate with HEK-293T for entry CN(C(=O)Cc1ccc(Cl)c(Cl)c1)C(CN1CCCC1)c1cccc(OCC(=O)O)c1.Cl (stereo not given) , please look it up.
Result string: 0

Query string: Lab note: need Growth Rate with HEK-293T for entry O=C(O)CC1CCC2(CC1)CCN(c1cc(OC(F)(F)F)ccc1Cl)CC2 , please look it up.
Result string: 1

Query string: Lab note: need Growth Rate with HEK-293T for entry Cc1c(Oc2ccc(F)cc2)c(OC(C)C)nn1-c1ccc(C2CC2)cn1 [IPP/CNRS-A019] , please look it up.
Result string: 1

Continuing:
Query string: Lab note: need Growth Rate with HEK-293T for entry O=C(c1ccc(F)c(F)c1Nc1ccc(I)cc1F)N1CC(O)([C@@H]2CCCCN2)C1 [COBIMETINIB] , please look it up.
Result string: 0

Query string: Lab note: need Growth Rate with HEK-293T for entry CNc1nc(-c2ccc3c(N)n[nH]c3c2)cc(N2C[C@@H](C(=O)NC3CCCCC3)CC[C@H]2C)n1 , please look it up.
Result string: 0

---

Tested on: U2OS
procedureSummary: Multiplex assay against U2OS
Assay type: toxicity, cell-based
studyConditions: human, 12 h, 10 µM, compound concentration 10 uM, replicate 1
Record met whenever Population Normal (%) is at 90% or higher; record not met when lower.

Example cases with answers are listed next.
Query string: Reported Population Normal (%) reaches at least 90% for Cc1cc2c(cc1N1C(=O)c3cccc4c(CCCO)ccc(c34)C1=O)n(C)c(=O)n2C ?
Result string: met

Query string: Reported Population Normal (%) reaches at least 90% for Cc1cn(-c2cc(NC(=O)c3ccc4c(c3)CN(c3cncnc3)C[C@@H]4C)cc(C(F)(F)F)c2)cn1 ?
Result string: met

Continuing:
Query string: Reported Population Normal (%) reaches at least 90% for Nc1ccc(C(=O)Nc2cccc(-c3nc(N4CCOCC4)c4oc5ncccc5c4n3)c2)cn1 ?
Result string: not met

Query string: Reported Population Normal (%) reaches at least 90% for CNc1oc(-c2cccc3ccccc23)nc1C#N ?
Result string: not met

Query string: Reported Population Normal (%) reaches at least 90% for N#Cc1cnc(Nc2cc(NC[C@H]3CNCCO3)c(C(F)(F)F)cn2)cn1 [SRA-737] ?
Result string: met

Query string: Reported Population Normal (%) reaches at least 90% for CN(C)C/C=C/C(=O)Nc1cc2c(Nc3ccc(F)c(Cl)c3)ncnc2cc1O[C@H]1CCOC1.O=C(O)/C=C\C(=O)O.O=C(O)/C=C\C(=O)O [AFATINIB DIMALEATE] ?
Result string: met

Query string: Reported Population Normal (%) reaches at least 90% for O=C(O)c1ccc2cc(-c3ccc(O)c(C45CC6CC(CC(C6)C4)C5)c3)ccc2c1 [O-DEMETHYLATED ADAPALENE] ?
Result string: met

Query string: Reported Population Normal (%) reaches at least 90% for O=C(O)c1ccc2c(c1)nc(Nc1cccc(Cl)c1)c1ccncc12 [SILMITASERTIB] ?
Result string: met

Query string: Reported Population Normal (%) reaches at least 90% for COc1ccc(NS(=O)(=O)c2sc3ccc(Cl)cc3c2C)cc1N1CCNCC1.Cl ?
Result string: met

Query string: Reported Population Normal (%) reaches at least 90% for Cc1nc(Cc2cccc(C(F)(F)F)c2)sc1-c1ccc(C(N)=O)nc1 [TP-024n] ?
Result string: met

Query string: Reported Population Normal (%) reaches at least 90% for COc1cc2c(Nc3ccc(NC(=O)c4ccccc4)cc3)ncnc2cc1OCCCN1CCOCC1 ?
Result string: met

Query string: Reported Population Normal (%) reaches at least 90% for CCCn1c(=O)c2[nH]c(C34CC5CC(CC3C5)C4)nc2n(CCC)c1=O [ROLOFYLLINE] ?
Result string: not met

---

Tested on: U2OS
procedureSummary: Multiplex assay against U2OS
Format: toxicity, cell-based
studyConditions: human, 12 h, 1 µM, compound concentration 1 uM, replicate 1
readoutLabel: Population Membrane Permeable-Phenotype (%)
The figure you give is taken to be in %; do not add the unit.

Query string: Using the record for Cl.Cl.Nc1ncnc2c1c(-c1cccc(OCc3ccccc3)c1)cn2[C@H]1C[C@@H](CN2CCC2)C1 , report its Population Membrane Permeable-Phenotype (%).
Result string: 8

Query string: Using the record for c1ccc2oc(-c3csc(C4CCN(Cc5nc6ncccc6[nH]5)CC4)n3)cc2c1 , report its Population Membrane Permeable-Phenotype (%).
Result string: 12

Query string: Using the record for CCOc1cc(N2CCC(O)CC2)ccc1Nc1ncc2c(n1)N(C1CCCC1)CCC(=O)N2C , report its Population Membrane Permeable-Phenotype (%).
Result string: 16

Continuing:
Query string: Using the record for Cc1cn(-c2cc(NC(=O)c3ccc4c(c3)CN(c3cncnc3)C[C@@H]4C)cc(C(F)(F)F)c2)cn1 , report its Population Membrane Permeable-Phenotype (%).
Result string: 6

Query string: Using the record for CN(C)C/C=C/C(=O)Nc1cc2c(Nc3ccc(F)c(Cl)c3)ncnc2cc1O[C@H]1CCOC1.O=C(O)/C=C\C(=O)O.O=C(O)/C=C\C(=O)O [AFATINIB DIMALEATE] , report its Population Membrane Permeable-Phenotype (%).
Result string: 20

Query string: Using the record for CCc1cc2c(cc1CC)CC(NC[C@H](O)c1ccc(O)c3[nH]c(=O)ccc13)C2 , report its Population Membrane Permeable-Phenotype (%).
Result string: 2

Query string: Using the record for Cc1nc(Cc2cccc(C(F)(F)F)c2)sc1-c1ccc(C(N)=O)nc1 [TP-024n] , report its Population Membrane Permeable-Phenotype (%).
Result string: 5

Query string: Using the record for Cl.Cl.NC1(c2ccc(-c3nc4ccn5c(=O)[nH]nc5c4cc3-c3ccccc3)cc2)CCC1 , report its Population Membrane Permeable-Phenotype (%).
Result string: 20
